# credit: ChEMBL document CHEMBL1138662

assay: Displacement of [20-3H]-phorbol 12,13-dibutyrate (PDBU) from recombinant Protein kinase C alpha (C1a/C1b domain) in presence of phosphatidyl serine
metric: pKi
Friendly reminder that pKi comes from taking -log10 of the concentration in mol/L.

Consider the compound O=C1CCCCCCCCCC/C=C2/CC(CO)(CO1)OC2=O (stereo not drawn) and give its measured pKi.
7.28

// pKi lookup, key: O=C1CCCCCCCCCCCCCCCCCC/C=C2\CC(CO)(CO1)OC2=O (stereo not drawn)
7.66

Suppose we examine the compound CCCCCCCCCCCCC/C=C1/C[C@@](CO)(COC(C)=O)OC1=O (stereo in doubt; 3) ; what pKi value has been reported?
7.46

Any idea what pKi was measured for CCCCCCCCCCCCC/C=C1/C[C@@](CO)(COC(C)=O)OC1=O (stereo in doubt) ?
7.45

For the compound CCCCCCCCCCCCCCCCC/C=C1\CC(CO)(COC(C)=O)OC1=O (stereo not drawn) , what pKi is on record?
7.55

Reported pKi, compound CCCCCCCCCCCCCC(=O)OCC(CO)OC(C)=O (stereo not drawn) : ____
6.00

Give its pKi value. Item: O=C1CCCCCCCCCCCCCC/C=C2\CC(CO)(CO1)OC2=O (stereo not drawn)
7.92

May I ask what pKi has been recorded for CC(C)CC(C/C=C1/CC(CO)(COC(=O)C(C)(C)C)OC1=O)CC(C)C (stereo not drawn) ?
8.54

Entry CCCCCCCCCCCCCC(=O)OCC1(CO)CCC(=O)O1 (stereo not drawn) has what pKi?
6.86

Recorded pKi for O=C1CCCCCCCCCCCCCC/C=C2/CC(CO)(CO1)OC2=O (stereo not drawn) , please?
8.22

Need pKi, item O=C1CCCCCC/C=C2\CC(CO)(CO1)OC2=O (stereo not drawn)
5.74

Requested field: pKi. Item: O=C1CCCCCCCCCCCCCCCCCC/C=C2/CC(CO)(CO1)OC2=O (stereo not drawn)
7.99

I'd like to know its pKi. The compound in question is CCCCCCCCCCCCC/C=C1\CC(CO)(COC(C)=O)OC1=O (stereo not drawn)
7.11

###

assay: Partition coefficient (logP)
Assay type: physicochemical
test-conditions: octanol/water
Record form. Attribute: logP. Fill in for each entry.
Number only, please.

# lookup: logP of CCCCCCCCCCCCCC(=O)OCC(CO)OC(C)=O (configuration not stated)
5.25

Given the entry O=C1CCCCCCCCCCCCCC/C=C2\CC(CO)(CO1)OC2=O (configuration not stated) , report its measured logP.
3.85

Quick one: logP of O=C1CCCCCCCCCC/C=C2/CC(CO)(CO1)OC2=O (configuration not stated) ?
1.88

Fill blank: measured logP of the molecule CCCCCCCCCCCCCCCCC/C=C1/CC(CO)(COC(C)=O)OC1=O (configuration not stated) is ____.
7.11

Which logP is reported for this molecule? CCCCCCCCCCCCCCCCC/C=C1\CC(CO)(COC(C)=O)OC1=O (configuration not stated)
7.11

I am curious: what logP value has been reported for O=C1CCCCCCCCCCCCCCCCCC/C=C2\CC(CO)(CO1)OC2=O (configuration not stated) ?
5.81

Name the reported logP value associated with the molecule CCCCCCCCCCCCC/C=C1\CC(CO)(COC(C)=O)OC1=O (configuration not stated)
5.36

Reported logP, molecule O=C1CCCCCCCCCCCCCC/C=C2/CC(CO)(CO1)OC2=O (configuration not stated) : ____
3.85

Please look up its logP: CCCCCCCCCCCCC/C=C1/C[C@@](CO)(COC(C)=O)OC1=O (stereo in doubt)
5.36

What value of measured logP is listed for O=C1CCCCCCCCCCCCCCCCCC/C=C2/CC(CO)(CO1)OC2=O (configuration not stated) ?
5.81

Look at this molecule and give its reported logP. O=C1CCCCCC/C=C2\CC(CO)(CO1)OC2=O (configuration not stated)
-0.08

Suppose we examine the molecule CCCCCCCCCCCCCC(=O)OCC1(CO)CCC(=O)O1 (configuration not stated) ; what logP value has been reported?
4.53
